Taken from patent US20140051120A1.

# SYSTEM_NAME: T1, mouse EGFL7 (mEGFL7-CB-His) (mouse, UniProt Q9QXT5 22-275)
# T1 sequence: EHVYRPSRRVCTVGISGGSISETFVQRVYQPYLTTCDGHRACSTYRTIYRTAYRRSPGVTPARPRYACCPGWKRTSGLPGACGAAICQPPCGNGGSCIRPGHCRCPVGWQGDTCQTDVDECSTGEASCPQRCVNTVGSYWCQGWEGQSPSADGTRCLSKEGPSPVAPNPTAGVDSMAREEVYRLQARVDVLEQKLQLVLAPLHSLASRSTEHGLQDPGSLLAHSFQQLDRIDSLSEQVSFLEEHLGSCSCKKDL
# EXPERIMENT_SUMMARY: SPR (Biacore), IgG over immobilized mEGFL7-CB at 37 C;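 also: IgG injected as twofold series from 0.5 to 1000 nM, 3 min association and 3.5 min dissociation, reference flow cell subtracted, kinetics fitted to 1:1 Langmuir model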
MEASURED_ENDPOINT: koff (s⁻¹)

1) 18F7.v6E IgG (antibody, V domains shown, IgG; Variant of 18F7.v6) VH: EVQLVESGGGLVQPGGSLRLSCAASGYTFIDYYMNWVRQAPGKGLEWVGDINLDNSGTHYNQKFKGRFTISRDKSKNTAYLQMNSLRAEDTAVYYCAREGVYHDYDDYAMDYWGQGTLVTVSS VL: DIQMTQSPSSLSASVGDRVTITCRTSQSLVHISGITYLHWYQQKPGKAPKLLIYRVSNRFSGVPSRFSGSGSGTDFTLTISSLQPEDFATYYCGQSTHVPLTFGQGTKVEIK = 0.000474
